biological target: hTLR7 (Homo sapiens, UniProt Q9NYK1); construct: expressed in transfected cells; host or cells: HEK-Blue hTLR7 reporter cell line; assay: HEK-Blue hTLR7 reporter assay (NF-kB-induced SEAP, Quanti-Blue); format: cell-based; conditions: Table 13, TLR7; read-out: EC50
Sequence (Q9NYK1 27-1049): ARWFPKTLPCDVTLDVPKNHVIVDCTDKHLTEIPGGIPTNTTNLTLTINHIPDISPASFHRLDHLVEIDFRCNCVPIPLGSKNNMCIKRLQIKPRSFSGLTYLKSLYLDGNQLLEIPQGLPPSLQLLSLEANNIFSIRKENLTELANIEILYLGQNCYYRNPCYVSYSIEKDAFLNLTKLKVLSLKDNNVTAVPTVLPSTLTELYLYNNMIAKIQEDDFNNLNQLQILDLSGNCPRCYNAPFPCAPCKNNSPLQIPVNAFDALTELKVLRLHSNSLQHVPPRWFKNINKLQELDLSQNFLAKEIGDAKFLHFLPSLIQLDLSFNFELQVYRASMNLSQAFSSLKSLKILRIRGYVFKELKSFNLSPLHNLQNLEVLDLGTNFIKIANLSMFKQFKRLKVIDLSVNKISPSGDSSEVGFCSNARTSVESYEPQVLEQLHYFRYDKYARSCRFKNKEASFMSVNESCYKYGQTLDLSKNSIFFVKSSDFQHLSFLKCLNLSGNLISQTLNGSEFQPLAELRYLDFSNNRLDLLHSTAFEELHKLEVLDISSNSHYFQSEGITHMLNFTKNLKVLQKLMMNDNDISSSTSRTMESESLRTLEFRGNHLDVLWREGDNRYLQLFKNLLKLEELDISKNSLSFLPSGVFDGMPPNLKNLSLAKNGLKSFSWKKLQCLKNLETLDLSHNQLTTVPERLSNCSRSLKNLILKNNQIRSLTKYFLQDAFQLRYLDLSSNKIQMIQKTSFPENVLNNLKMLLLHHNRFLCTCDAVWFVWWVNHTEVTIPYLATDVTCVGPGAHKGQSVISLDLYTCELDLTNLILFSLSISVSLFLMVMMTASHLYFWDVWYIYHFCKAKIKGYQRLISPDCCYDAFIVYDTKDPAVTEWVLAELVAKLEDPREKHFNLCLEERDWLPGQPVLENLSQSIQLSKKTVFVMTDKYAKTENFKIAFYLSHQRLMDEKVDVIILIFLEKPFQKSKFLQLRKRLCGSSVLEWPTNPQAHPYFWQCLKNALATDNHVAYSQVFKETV
pEC50: −log10 of the molar value.
measured_attribute: pEC50

For orientation, consider the following solved cases.
Bench note: what pEC50 did "CCCCOc1nc(N)c2[nH]c(=O)n(Cc3ccc(CN4CCCCC4)cc3)c2n1" show?
5.78

Likewise for CCCCNc1nc(N)c2[nH]c(=O)n(Cc3ccc(OCCN(C)C)nc3)c2n1 [DSR-6434, reference compound] ?
8.05

Likewise for "CCCCOc1nc(N)c2[nH]c(=O)n(Cc3ccc(CN4CCC(CCNC(=O)[C@H](C)NC(=O)CON)CC4)cc3)c2n1" ?
6.49

Likewise for "CCCCOc1nc(N)c2[nH]c(=O)n(Cc3ccc(CN4CCC(CCNC(=O)[C@H](CCCNC(=N)N)NC(=O)CON)CC4)cc3)c2n1" ?
6.48

(A) CCCCOc1nc(N)c2[nH]c(=O)n(Cc3ccc(CN4CCC(CCN(CC(C)C)C(=O)CCOCCON)CC4)cc3)c2n1
(B) CCCCOc1nc(N)c2[nH]c(=O)n(Cc3ccc(CN4CCC(CCNC(=O)[C@H](C)N)CC4)cc3)c2n1
Which record would sort first by descending pEC50, A or B ? // output: label of the selected item
B
(B: 7.33, A: 5.51)

Values were extracted from patent US20230302150A1.
